TEST_SYSTEM: mutant G2019S LRRK2 (Homo sapiens, UniProt Q5S007, G2019S)
Sequence (Q5S007 970-2527 G2019S limits assumed): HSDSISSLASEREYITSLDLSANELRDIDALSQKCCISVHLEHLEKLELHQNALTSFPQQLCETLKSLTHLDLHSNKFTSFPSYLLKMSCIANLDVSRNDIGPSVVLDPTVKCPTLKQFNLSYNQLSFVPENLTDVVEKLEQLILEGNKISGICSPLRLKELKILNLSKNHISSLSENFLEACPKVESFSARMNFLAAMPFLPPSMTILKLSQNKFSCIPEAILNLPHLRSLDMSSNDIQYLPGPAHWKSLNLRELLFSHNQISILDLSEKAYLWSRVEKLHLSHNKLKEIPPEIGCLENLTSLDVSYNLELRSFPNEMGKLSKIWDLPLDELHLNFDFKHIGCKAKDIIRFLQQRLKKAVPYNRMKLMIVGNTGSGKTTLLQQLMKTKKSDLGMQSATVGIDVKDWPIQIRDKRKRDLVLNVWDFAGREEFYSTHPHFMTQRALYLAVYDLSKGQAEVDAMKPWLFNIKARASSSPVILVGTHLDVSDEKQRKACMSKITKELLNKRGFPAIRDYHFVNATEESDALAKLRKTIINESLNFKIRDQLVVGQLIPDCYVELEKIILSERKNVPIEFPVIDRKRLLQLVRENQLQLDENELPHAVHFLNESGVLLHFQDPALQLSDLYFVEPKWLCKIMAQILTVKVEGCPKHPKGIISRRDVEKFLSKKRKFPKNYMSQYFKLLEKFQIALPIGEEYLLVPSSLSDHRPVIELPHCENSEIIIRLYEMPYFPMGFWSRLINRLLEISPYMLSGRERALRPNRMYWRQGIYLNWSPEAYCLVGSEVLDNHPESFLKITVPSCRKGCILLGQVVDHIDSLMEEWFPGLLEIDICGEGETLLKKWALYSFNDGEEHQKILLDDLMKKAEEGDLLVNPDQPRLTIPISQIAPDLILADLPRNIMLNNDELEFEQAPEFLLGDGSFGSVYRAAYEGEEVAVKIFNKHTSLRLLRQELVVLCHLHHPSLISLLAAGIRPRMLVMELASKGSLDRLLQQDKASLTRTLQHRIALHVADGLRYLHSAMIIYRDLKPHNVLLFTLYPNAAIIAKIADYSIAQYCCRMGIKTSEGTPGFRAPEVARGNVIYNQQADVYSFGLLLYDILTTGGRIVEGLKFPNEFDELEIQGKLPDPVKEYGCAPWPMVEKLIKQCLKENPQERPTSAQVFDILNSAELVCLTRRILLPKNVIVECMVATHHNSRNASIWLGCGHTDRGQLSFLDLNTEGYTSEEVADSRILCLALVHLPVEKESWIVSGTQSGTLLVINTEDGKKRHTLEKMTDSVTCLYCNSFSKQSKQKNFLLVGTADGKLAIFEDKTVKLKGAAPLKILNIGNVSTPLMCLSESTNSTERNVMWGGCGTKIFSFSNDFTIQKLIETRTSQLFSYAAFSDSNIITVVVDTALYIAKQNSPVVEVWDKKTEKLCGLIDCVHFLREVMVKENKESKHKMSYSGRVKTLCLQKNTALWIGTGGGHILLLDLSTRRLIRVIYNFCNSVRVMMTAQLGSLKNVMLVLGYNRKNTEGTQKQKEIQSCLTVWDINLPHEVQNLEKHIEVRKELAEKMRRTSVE
ASSAY_PROCEDURE: LRRK2 Assay, Format 2 (Lantha Screen), G2019S mutant
Format: biochemical
Set-up: purchased Invitrogen PV4881
CONDITION_DETAILS: 100 nM LRRKtide, 1000 mM ATP (so in the source), 30 minutes at room temperature; read-out: LRRK2, Format 2 G2019S mutant IC50
ENDPOINT_NAME: IC50 (nM)

- COMPOUND: "COCc1cn(Cc2nc3cnc4ccc(C#N)cc4c3n2C2CCC(F)C2)nn1 (single isomer, unassigned; ent-2) [enantiomer of Example 132]"
  UNIT_NAME: "nM"
  IC50: 34.5

A. Cc1cc(Cc2nc3cnc4ccc(C#N)cc4c3n2C2CCC(F)C2)on1 (single isomer, unassigned; ent-2) [enantiomer of Example 118]
B. Cc1nc(Cc2nc3cnc4ccc(Cl)cc4c3n2C2C[C@@H](C)[C@@H](F)C2)no1 (mixture of isomers) [diastereomer of Example 136]
Lookup: Compare reported IC50 values for A and B . Which is lower? The response must carry the label of the picked entry.
Found: A
